molecular target: OX1 (Homo sapiens); construct: expressed in transfected cells; host or cells: CHO (CHO-OX1, kept under selection antibiotic); test: Orexin receptor cell-based functional assay, [Ca2+]i by FLIPR, CHO-OX1 cells; conditions: CHO-OX1 cells, [Ca2+]i by FLIPR, antagonist dose-range 0.1 nM-10 μM, EC90 of OXA; read-out: OX1
measured parameter: IC50 (nM)

1) C[C@@H]1CCCN(C(=O)c2cccc(F)c2-n2nccn2)[C@@H]1CNc1ccc(Cl)cn1 [Example A254]; 37

A. C[C@@H]1CCCN(C(=O)c2c(-c3ncccn3)ccc(F)c2F)[C@@H]1CNc1ccc(C(F)(F)F)cn1 [Example A388]
B. C[C@@H]1CCCN(C(=O)c2ccc(F)c(F)c2-n2nccn2)[C@@H]1CNc1ncc(C(F)(F)F)cn1 [Example A325]
C. C[C@@H]1CCCN(C(=O)c2c(F)cccc2-n2nccn2)[C@@H]1CNc1ncc(C(F)(F)F)cn1 [Example A259]
D. Cc1ccc(-n2nccn2)c(C(=O)N2CCC[C@@H](C)[C@H]2CNc2ncc(C(F)(F)F)cn2)n1 [Example A175]
Problem: Ascending by IC50, please. The labels, placed in the requested order, form the answer.
Result: D, B, A, C
(D: 1 nM, B: 2 nM, A: 4 nM, C: 9 nM)

A. C[C@@H]1CCCN(C(=O)c2ccccc2-n2nccn2)[C@@H]1CNc1ccc(C(F)(F)F)cn1 [Example A314]
B. Cc1cc(-n2nccn2)c(C(=O)N2CCC[C@@H](C)[C@H]2CNc2ncc(C(F)(F)F)cn2)cc1F [Example A361]
C. Cc1c(F)ccc(C(=O)N2CCC[C@@H](C)[C@H]2CNc2ncc(C(F)(F)F)cn2)c1-n1nccn1 [Example A345]
Problem: Highest IC50 first, then in falling order down to the smallest. Your answer should be the labels, listed in the requested order.
Result: B, A, C
(B: 4 nM, A: 2 nM, C: 1 nM)

a. Cc1ccc(C(=O)N2CCC[C@@H](C)[C@H]2CNc2ccc(C(F)(F)F)cn2)c(-c2ncccn2)c1 [Example A305]
b. Cc1ccc(-n2nccn2)c(C(=O)N2CCC[C@@H](C)[C@H]2CNc2ncccc2C(F)(F)F)c1 [Example A88]
Problem: // task: argmin of IC50 over [ a , b ] Pick one and reply with its label.
Result: a

a. Cc1ccc(NC[C@@H]2[C@H](C)CCCN2C(=O)c2cc(C)ccc2-c2cnn(C)c2)nc1 [Example A49]
b. Cc1ccc(-n2nccn2)c(C(=O)N2CCC[C@@H](C)[C@H]2CNc2ccc(Cl)cn2)c1 [Example A78]
Problem: Param pair: a , b . Output: the one whose IC50 is numerically greater. Choose, then provide that item's label.
Result: a
(a: 500 nM, b: 7 nM)

====

target: CYP3A4 (Homo sapiens, UniProt P08684); construct: pre-incubated with human liver microsomes and NADPH; from tissue; host or cells: human liver microsomes; assay: Cytochrome P450 inhibition assay (midazolam hydroxylation); assay type: in vitro ADME; settings: human, human liver microsomes, probe midazolam (hydroxylation to 1′-hydroxymidazolam), 10 μM test compound, midazolam at approximately its Km
Sequence (P08684 whole entry): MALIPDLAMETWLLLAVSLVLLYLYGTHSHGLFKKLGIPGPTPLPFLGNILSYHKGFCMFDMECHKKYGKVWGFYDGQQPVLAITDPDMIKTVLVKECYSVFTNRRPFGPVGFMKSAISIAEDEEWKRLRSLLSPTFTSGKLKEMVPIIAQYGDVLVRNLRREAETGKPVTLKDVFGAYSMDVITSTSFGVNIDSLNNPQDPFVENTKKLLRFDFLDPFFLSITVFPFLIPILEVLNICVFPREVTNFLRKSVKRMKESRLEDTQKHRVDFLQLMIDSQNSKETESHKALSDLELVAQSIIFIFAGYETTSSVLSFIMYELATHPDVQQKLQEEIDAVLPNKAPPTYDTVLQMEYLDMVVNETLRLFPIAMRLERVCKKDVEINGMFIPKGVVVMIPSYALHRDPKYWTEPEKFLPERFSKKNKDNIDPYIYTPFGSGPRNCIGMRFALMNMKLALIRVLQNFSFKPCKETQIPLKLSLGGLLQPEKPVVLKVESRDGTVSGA
measured parameter: inhibition at 10 µM (%)

1) Cc1ccc(-n2nccn2)c(C(=O)N2CCC[C@@H](C)[C@H]2CNc2ncc(Cl)cn2)c1 [Example A147]; 66

P. Cc1ccc(-c2ccn(C)c2)c(C(=O)N2CCC[C@@H](C)[C@H]2CNc2ccc(C(F)(F)F)cn2)c1 [Example A6]
Q. C[C@@H]1CCCN(C(=O)c2cc(C#N)ccc2-c2ncccn2)[C@@H]1CNc1ncc(C(F)(F)F)cn1 [Example A323]
Problem: Between these two entries, P and Q , state which has the higher inhibition at 10 µM. # answer = label of selected item
Result: P

I. Cc1ccc(-c2cn[nH]c2)c(C(=O)N2CCC[C@@H](C)[C@H]2CNc2ccc(C(F)(F)F)cn2)c1 [Example A3]
II. Cc1ccc(-c2ccccn2)c(C(=O)N2CCC[C@@H](C)[C@H]2CNc2ncc(C#N)cn2)c1 [Example A153]
Problem: # compare inhibition at 10 µM for I vs II ; return the one with the smaller value Label of pick, please.
Result: II
(II: 66%, I: 98%)

====

molecular target: CYP3A4 (Homo sapiens, UniProt P08684); construct: pre-incubated with human liver microsomes and NADPH; from tissue; host or cells: human liver microsomes; test: Cytochrome P450 inhibition assay (midazolam hydroxylation); format: in vitro ADME; details: human, human liver microsomes, probe midazolam (hydroxylation to 1′-hydroxymidazolam), 10 μM test compound, midazolam at approximately its Km
measured parameter: inhibition at 10 µM (%)

These recorded examples may help you get a feel for the data.
1) Cc1ccc(-c2ccccn2)c(C(=O)N2CCC[C@@H](C)[C@H]2CNc2ccc(C(F)(F)F)nn2)n1; 42
2) C[C@@H]1CCCN(C(=O)c2c(F)ccc(F)c2-n2nccn2)[C@@H]1CNc1ncc(C(F)(F)F)cn1; 38
3) C[C@@H]1CCCN(C(=O)c2c(F)cccc2-n2nccn2)[C@@H]1CNc1ncc(Cl)cn1; 53
4) C[C@@H]1CCCN(C(=O)c2cc(Cl)ccc2-c2ncccn2)[C@@H]1CNc1ccc(Cl)cn1; 70
5) Cc1ccc(-n2nccn2)c(C(=O)N2CCC[C@@H](C)[C@H]2CNc2ccc(C#N)nn2)c1; 48

P. Cc1ccc(-n2nccn2)c(C(=O)N2CCC[C@@H](C)[C@H]2COc2ccc(C(F)(F)F)cn2)c1
Q. Cc1cncc(-c2ccc(C)cc2C(=O)N2CCC[C@@H](C)[C@H]2CNc2ccc(C(F)(F)F)cn2)c1
Problem: Of the two listed items, P and Q , which carries the larger inhibition at 10 µM figure? Respond with the label that goes with your answer.
Result: Q
(Q: 98%, P: 54%)

====

Target: OX1 (Homo sapiens)
Construct: expressed in transfected cells; host or cells: CHO (CHO-OX1, kept under selection antibiotic)
Sequence (O43613 1-425): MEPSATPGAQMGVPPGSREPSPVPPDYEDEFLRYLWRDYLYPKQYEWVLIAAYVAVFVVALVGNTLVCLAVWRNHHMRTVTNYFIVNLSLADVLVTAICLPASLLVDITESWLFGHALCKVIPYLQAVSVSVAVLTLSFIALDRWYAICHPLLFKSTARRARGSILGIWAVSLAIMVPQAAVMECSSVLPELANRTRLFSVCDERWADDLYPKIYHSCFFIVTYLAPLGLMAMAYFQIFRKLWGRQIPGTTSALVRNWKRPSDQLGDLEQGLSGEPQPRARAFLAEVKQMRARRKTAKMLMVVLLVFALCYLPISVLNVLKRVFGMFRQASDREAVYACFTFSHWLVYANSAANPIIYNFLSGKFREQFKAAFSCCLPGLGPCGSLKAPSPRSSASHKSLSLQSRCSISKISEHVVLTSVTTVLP
Assay: Orexin receptor cell-based functional assay, [Ca2+]i by FLIPR, CHO-OX1 cells
Details: CHO-OX1 cells, [Ca2+]i by FLIPR, antagonist dose-range 0.1 nM-10 μM, EC90 of OXA; read-out: OX1
pIC50: −log10 of the molar value.
measured parameter: pIC50

1. Cc1ccc(-c2ccnc(C)c2)c(C(=O)N2CCC[C@@H](C)[C@H]2CNc2nc3cc(Cl)ccc3o2)c1; 8.40

P. Cc1ccc(C(=O)N2CCC[C@@H](C)[C@H]2CNc2ncc(C(F)(F)F)cn2)c(-c2ncccn2)c1F
Q. C[C@@H]1CCCN(C(=O)c2cc(F)c(F)cc2-c2ncccn2)[C@@H]1CNc1ncc(C(F)(F)F)cn1
Problem: Smaller pIC50 value? Options are P and Q Which one? Tell me its label.
Result: Q

====

molecular target: CYP3A4 (Homo sapiens, UniProt P08684); construct: pre-incubated with human liver microsomes and NADPH; from tissue; host or cells: human liver microsomes; test: Cytochrome P450 inhibition assay (midazolam hydroxylation); type: in vitro ADME; details: human, human liver microsomes, probe midazolam (hydroxylation to 1′-hydroxymidazolam), 10 μM test compound, midazolam at approximately its Km
measured parameter: inhibition at 10 µM (%)

The following molecules have reported results that may help.
1) C[C@@H]1CCCN(C(=O)c2cc(Cl)ccc2-c2ncccn2)[C@@H]1CNc1ncc(Cl)cn1; 44
2) Cc1ccc(-n2nccn2)c(C(=O)N2CCC[C@@H](C)[C@H]2CNc2ncc(F)cc2F)c1; 76

a. Cc1ccc(-n2cccn2)c(C(=O)N2CCC[C@@H](C)[C@H]2CNc2ncc(C(F)(F)F)cn2)n1
b. Cc1ccc(C#N)c(C(=O)N2CCC[C@@H](C)[C@H]2CNc2ccc(C(F)(F)F)cn2)c1
Problem: Determine, for a and b , which has the greater value of inhibition at 10 µM. Your answer should be the label of the entry you select.
Result: b

====

target: cytochrome P450 3A4 isoform (Homo sapiens, UniProt P08684); construct: pre-incubated with human liver microsomes and NADPH; from tissue; host or cells: human liver microsomes; test: Cytochrome P450 inhibition assay (midazolam hydroxylation); type: in vitro ADME; settings: 10 μM test compound; midazolam at approximately its Km; human liver microsomes; 10 µM
Sequence (P08684 whole entry, canonical isoform): as the sequence (P08684 whole entry) above
measured parameter: % CYP3A4 Inhibition (%)

Consider the following illustrative entries.
1) Cc1nc(C(=O)N2CCC[C@@H](C)[C@H]2CNc2nc3cc(Cl)ccc3o2)c(-c2ccc(F)cc2)s1 [Example A13]; 83
2) Cc1ccc(-n2nccn2)c(C(=O)N2CCC[C@@H](C)[C@H]2CNc2ncc(Cl)cc2F)c1 [Example A92]; 91
3) Cc1nc(C(=O)N2CCC[C@@H](C)[C@H]2CNc2nc3cc(Cl)ccc3o2)c(-c2ccc(F)cc2)s1 [Example A84]; 50

1. Cc1ccc(-n2nccn2)c(C(=O)N2CCC[C@@H](C)[C@H]2CNc2ncc(F)cc2F)c1 [Example A91]
2. Cc1ccc(-c2cnn(C)c2)c(C(=O)N2CCC[C@@H](C)[C@H]2CNc2nc3cc(Cl)ccc3o2)c1 [Example A40]
Problem: Looking at 1 and 2 , which one comes out lower in % CYP3A4 Inhibition terms? Output the label that corresponds to your choice.
Result: 1
(1: 58%, 2: 96%)
